Biological target: HIV-1 Env of Q769.d22 (HIV-1)
Experiment: cell-based or functional assay
readoutKind: neutralization IC50

1) CAP256-VRC26.09 (antibody, V domains shown) VH: EVQLVESGGGVVQPGRSLTLSCAASQFNFANYGMHWVRQAPGKGLEWVASISNDGTKKYHEESVWGRFTISKDNSKSTLFLQMNSLRIEDTALYFCVKDQREDECEEWWSDYYDFGRELPCRKSRGLGLAGIFDMWGHGTMVTVSS VL: QSALTQPPSVSAAPGQKVTISCSGNSSNIGNNFVSWYQQLPGTAPKLLIYENNRRPSGIPDRFSGSKSGTSATLAISGLQTGDEADYWCAVWGVRRGAGAVFGAGTKVTVLG    > 50 mg/L
